Measured λmax Ferrous accompanies every entry in the list below.
# experimental.target: CYP3A4 (Homo sapiens, UniProt P08684)
# Construct: The full-length protein was used for assays and the truncated form was used for crystallization; made in house
# Sequence (P08684 whole entry, the tested form may be a part): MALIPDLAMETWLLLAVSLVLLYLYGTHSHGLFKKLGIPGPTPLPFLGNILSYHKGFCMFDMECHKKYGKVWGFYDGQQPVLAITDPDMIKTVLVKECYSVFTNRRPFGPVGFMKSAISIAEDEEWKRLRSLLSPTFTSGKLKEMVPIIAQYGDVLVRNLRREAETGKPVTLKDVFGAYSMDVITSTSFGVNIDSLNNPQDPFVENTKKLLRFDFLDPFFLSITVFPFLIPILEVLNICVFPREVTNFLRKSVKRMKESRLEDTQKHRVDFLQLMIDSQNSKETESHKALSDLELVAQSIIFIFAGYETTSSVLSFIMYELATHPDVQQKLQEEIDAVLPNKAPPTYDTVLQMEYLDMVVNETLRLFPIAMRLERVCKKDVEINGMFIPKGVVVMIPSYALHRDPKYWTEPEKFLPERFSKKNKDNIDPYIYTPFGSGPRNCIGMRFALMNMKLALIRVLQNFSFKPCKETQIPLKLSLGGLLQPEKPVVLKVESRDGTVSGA
# experimental.details: Spectral binding titrations (equilibrium ligand binding, type II spectral change)
# assay.context: ferrous ligand-bound CYP3A4
Respond with the bare value in nm.

Solved entries:
CC(C)(C)OC(=O)N[C@H](CS[C@H](Cc1ccccc1)C(=O)NCc1ccncc1)Cc1ccccc1 [Compound 5a]	443
O=C(CCc1cccnc1)N[C@H](CS[C@H](Cc1ccccc1)C(=O)NCCc1cccnc1)Cc1ccccc1 [Compound 8b]	443
CC(C)(C)OC(=O)N[C@H](CS[C@H](Cc1ccccc1)C(=O)NCCc1ccncc1)Cc1ccccc1 [Compound 5b]	443
O=C(CNC(=O)c1cccnc1)N[C@H](CS[C@H](Cc1ccccc1)C(=O)NCCCc1cccnc1)Cc1ccccc1 [Compound 10b]	443
O=C(Cc1cccnc1)N[C@H](CS[C@H](Cc1ccccc1)C(=O)NCc1cccnc1)Cc1ccccc1 [Compound 8a]	443

Here is another compound to look at.
# λmax Ferrous (compound: O=C(N[C@H](CS[C@H](Cc1ccccc1)C(=O)NCCCc1cccnc1)Cc1ccccc1)c1cccnc1 [Compound 10a] ) is 444
